meta.source: patent US20240317871A1

For each of the binders below, state its koff.
- target or test system: T1, His-tagged human HVEM (human, UniProt Q92956 39-202, limits assumed)
- T1 construct: Analyte of the BLI assay, 200 nM in PBS; not shown: His tag
- T1 sequence (looked up): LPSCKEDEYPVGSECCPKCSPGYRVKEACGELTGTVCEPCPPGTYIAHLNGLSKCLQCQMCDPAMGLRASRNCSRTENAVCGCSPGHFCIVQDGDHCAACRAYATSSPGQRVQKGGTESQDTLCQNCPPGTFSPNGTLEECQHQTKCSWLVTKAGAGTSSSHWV
- assay explanation: BLI OctetRed96, mAb captured, 200 nM His-HVEM
# unit: s⁻¹ | format: bare number

Input: Entry Ab_043 (H5S15-29A24A) (antibody, V domains shown, also called Ab_43) VH: EVQLQQSGAELVRPGALVKLSCKASGFNIKDDYMHWVKQRPEQGLEWIGWIDPENGNTIYDPKFQGKASITADTSSNTAYLQLSSLTSEDTAVYYCARGYSSSPYWGQGTLVTVSA VL: DIVLTQSPASLAVSLGQRATISCKASQSVDYDGNSYMNWYQQKPRQPPKLLIYAASNLESGIPARFRGSGSGTDFTLNIHPVEEEDAATYYCQQSNEDPFTFGSGTKLEIK has what koff?
Output: 0.00148

Input: Entry Ab_087 (H5S20-59A43A) (antibody, V domains shown, also called Ab_87) VH: EVKLVESGGGLVKPGGSLKLSCAASGFTFSSYAMSWVRQTPEKRLEWVASISSGSSTYYPDSVKGRFTISRDNARNILYLQMSSLRSEDTAMYYCAKGRGYGNYLYAMDYWGQGTSVTVSS VL: DIVMTQSQKFMSTSVGDRVSVTCKASQNVGTNVAWYQQKPGQSPKALIYSASYRYSGVPDRFTGSGSGTDFTLTISNVQSEDLAEYFCQQYNSYPLTFGGGTKLEIK has what koff?
Output: 0.323

Input: Entry Ab_028 (H5S15-33A29A) (antibody, V domains shown, also called Ab_28) VH: QVQLKQSGPGLVQPSQSLSITCTVSGFSLTTYGVHWVRQSPGKGLEWLGVIWSGGNTDYNPAFISRLSISKDNSKSQVFFKMNTLQASDTAIYYCARRGYNKGYAMDYWGQGTSFTVSS VL: EIVLTQSPALMTASPGEKVTITCSVSSTISSRNLHWYQQKSEASPKPWIYGTSNLASGVPVRFSGSGSGTSYSLTISSMEAEDAATYYCQQWNSYPLTFGSGTKLEIK has what koff?
Output: 0.00266
